System: HeLa
ASSAY_TEXT: Cytotoxicity against human HeLa cells
Assay type: cell-based

- COMPOUND: "CC(=O)O[C@H]1[C@H](C(C)C)[C@@H]2[C@@H]([C@H]3C[C@@H](C)C(=O)CC[C@@](C)(OC(C)=O)[C@@H]2O3)[C@](O)(CCl)[C@H]1OC(C)=O [KLYMOLLIN A]"
  Activity: "Non-toxic"
- COMPOUND: "C=C1C[C@H]2O[C@H]([C@H]3[C@@H]2[C@]2(CO2)[C@@H](OC(C)=O)C[C@@H]3C(C)C)[C@](C)(OC(C)=O)CC[C@@H]1O (relative stereo)"
  Activity: "Non-toxic"
- COMPOUND: "CC(=O)O[C@H]1[C@H](C(C)C)[C@@H]2[C@@H]([C@H]3C[C@H](C)C(=O)CC[C@@](C)(OC(C)=O)[C@@H]2O3)[C@](O)(CCl)[C@H]1OC(C)=O [KLYMOLLIN B]"
  Activity: "Non-toxic"

----------
System: Daoy
ASSAY_TEXT: Cytotoxicity against human DaOY cells
Assay type: cell-based
ASSAY_READOUT: Activity

Consider the reported Activity for these molecules:
- MOLECULE: "CCCCCCCCCCCCCC(=O)O[C@H]1CC[C@@](C)(OC(C)=O)[C@@H]2O[C@H](C[C@]1(C)O)[C@@H]1[C@H]2[C@@H](C(C)C)[C@H](OC(C)=O)[C@H](OC(C)=O)[C@@]12CO2 (relative stereo)"
  MEASUREMENT: "Non-toxic"
- MOLECULE: "CC(=O)O[C@H]1[C@H](C(C)C)[C@@H]2[C@@H]([C@H]3C[C@](C)(O)[C@@H](OC(C)=O)CC[C@@](C)(OC(C)=O)[C@@H]2O3)[C@]2(CO2)[C@H]1OC(C)=O (relative stereo)"
  MEASUREMENT: "Non-toxic"
- MOLECULE: "CC(=O)O[C@H]1[C@H](C(C)C)[C@@H]2[C@@H]([C@H]3C[C@](C)(O)[C@@H](OC=O)CC[C@@](C)(OC(C)=O)[C@@H]2O3)[C@]2(CO2)[C@H]1OC(C)=O [KLYMOLLIN H]"
  MEASUREMENT: "Non-toxic"
- MOLECULE: "CC(=O)O[C@H]1[C@H](C(C)C)[C@@H]2[C@@H]([C@H]3C[C@H](C)C(=O)CC[C@@](C)(OC(C)=O)[C@@H]2O3)[C@](O)(CCl)[C@H]1OC(C)=O [KLYMOLLIN B]"
  MEASUREMENT: "Non-toxic"
- MOLECULE: "CCCCCCCCCCCCCCCC(=O)O[C@H]1CC[C@@](C)(OC(C)=O)[C@@H]2O[C@H](C[C@]1(C)O)[C@@H]1[C@H]2[C@@H](C(C)C)[C@H](OC(C)=O)[C@H](OC(C)=O)[C@@]12CO2 (relative stereo)"
  MEASUREMENT: "Non-toxic"

The reported value for C=C1C[C@H]2O[C@H]([C@H]3[C@@H]2[C@]2(CO2)[C@@H](OC(C)=O)C[C@@H]3C(C)C)[C@](C)(OC(C)=O)CC[C@@H]1O (relative stereo) in terms of Activity is Non-toxic

The reported Activity of the molecule CC(=O)O[C@H]1[C@H](C(C)C)[C@@H]2[C@@H]([C@H]3C[C@@H](C)C(=O)CC[C@@](C)(OC(C)=O)[C@@H]2O3)[C@](O)(CCl)[C@H]1OC(C)=O [KLYMOLLIN A] was Non-toxic

So for C=C1C[C@H]2O[C@H]([C@@H]3[C@@H](C(C)C)[C@H](OC(C)=O)[C@H](OC(C)=O)[C@@]4(CO4)[C@@H]32)[C@](C)(OC(C)=O)CC[C@@H]1O (relative stereo) , the logged Activity turned out to be Non-toxic

----------
Tested on: RAW264.7
ASSAY_TEXT: Antiinflammatory activity in LPS-stimulated mouse RAW264.7 cells assessed as reduction in iNOS protein expression at 10 uM by immunoblot analysis
Type: functional
Set-up: scale not given: the % may be the effect or the level left
ASSAY_READOUT: Activity (%)
API: value field is a number in %; no unit string.

Item: CC(=O)O[C@H]1[C@H](C(C)C)[C@@H]2[C@@H]([C@H]3C[C@](C)(O)[C@@H](OC=O)CC[C@@](C)(OC(C)=O)[C@@H]2O3)[C@]2(CO2)[C@H]1OC(C)=O | Activity: 32.6

The molecule listed as CCCCCCCCCCCCCCCC(=O)O[C@H]1CC[C@@](C)(OC(C)=O)[C@@H]2O[C@H](C[C@]1(C)O)[C@@H]1[C@H]2[C@@H](C(C)C)[C@H](OC(C)=O)[C@H](OC(C)=O)[C@@]12CO2 (relative stereo) has a reported Activity of 5.2

Lab note: C=C1C[C@H]2O[C@H]([C@H]3[C@@H]2[C@]2(CO2)[C@@H](OC(C)=O)C[C@@H]3C(C)C)[C@](C)(OC(C)=O)CC[C@@H]1O (relative stereo) gave Activity of 25.1

Record C=C1C[C@H]2O[C@H]([C@@H]3[C@@H](C(C)C)[C@H](OC(C)=O)[C@H](OC(C)=O)[C@@]4(CO4)[C@@H]32)[C@](C)(OC(C)=O)CC[C@@H]1O (relative stereo) . Reported Activity: 42.1

Activity reading for CC(=O)O[C@H]1[C@H](C(C)C)[C@@H]2[C@@H]([C@H]3C[C@](C)(O)[C@@H](OC(C)=O)CC[C@@](C)(OC(C)=O)[C@@H]2O3)[C@]2(CO2)[C@H]1OC(C)=O (relative stereo) : 25.7

Activity for CCCCCCCCCCCCCC(=O)O[C@H]1CC[C@@](C)(OC(C)=O)[C@@H]2O[C@H](C[C@]1(C)O)[C@@H]1[C@H]2[C@@H](C(C)C)[C@H](OC(C)=O)[C@H](OC(C)=O)[C@@]12CO2 (relative stereo) is 6

----------
Test system: MCF7
ASSAY_TEXT: Cytotoxicity against human MCF7 cells
Type: cell-based
ASSAY_READOUT: Activity

- MOLECULE: "CC(=O)O[C@H]1[C@H](C(C)C)[C@@H]2[C@@H]([C@H]3C[C@](C)(O)[C@@H](OC=O)CC[C@@](C)(OC(C)=O)[C@@H]2O3)[C@]2(CO2)[C@H]1OC(C)=O"
  ASSAY_READOUT: "Activity"
  MEASUREMENT: "Non-toxic"
- MOLECULE: "C=C1C[C@H]2O[C@H]([C@@H]3[C@@H](C(C)C)[C@H](OC(C)=O)[C@H](OC(C)=O)[C@@]4(CO4)[C@@H]32)[C@](C)(OC(C)=O)CC[C@@H]1O (relative stereo)"
  ASSAY_READOUT: "Activity"
  MEASUREMENT: "Non-toxic"
- MOLECULE: "CCCCCCCCCCCCCCCC(=O)O[C@H]1CC[C@@](C)(OC(C)=O)[C@@H]2O[C@H](C[C@]1(C)O)[C@@H]1[C@H]2[C@@H](C(C)C)[C@H](OC(C)=O)[C@H](OC(C)=O)[C@@]12CO2 (relative stereo)"
  ASSAY_READOUT: "Activity"
  MEASUREMENT: "Non-toxic"

Entry source: ChEMBL document CHEMBL1921708
